The origin of these recorded values is paper PMC6225228.

Test system: Candida glabrata 20/I
Assay: Antifungal microdilution broth, CG
Assay type: cell-based
Settings: Nakaseomyces glabratus, 20/I, 24 h, read-out: MIC CG

{"columns": ["Structure", "MIC"],
 "data": [
  ["O=C(Nc1cnccn1)c1cccc(C(F)(F)F)c1", "> 125 µM"],
  ["O=C(Nc1cnccn1)c1ccccc1", "> 500 µM"],
  ["CCc1ccc(C(=O)Nc2cnccn2)cc1", "> 500 µM"],
  ["COc1cccc(C(=O)Nc2cnc(Cl)cn2)c1", "> 500 µM"],
  ["O=C(Nc1cnc(Cl)cn1)c1ccccc1Cl", "> 500 µM"],
  ["COc1ccccc1C(=O)Nc1cncc(Cl)n1", "> 500 µM"],
  ["O=C(Nc1cnccn1)c1ccccc1Cl", "> 500 µM"],
  ["O=C(Nc1cncc(Cl)n1)c1ccccc1Cl", "> 500 µM"],
  ["Cc1ccc(C(=O)Nc2cnccn2)cc1", "> 500 µM"],
  ["O=C(Nc1cnc(Cl)cn1)c1ccccc1O", "125 µM"],
  ["O=C(Nc1cnccn1)c1cccc(Cl)c1", "> 125 µM"]
]}

* * *

Tested on: Enterococcus sp. J 14365/08
Assay: Antibacterial microdilution broth, EF
Format: cell-based
Settings: Enterococcus, SP.J14365/08, 48 h, read-out: MIC EF
MIC by entry:

{"columns": ["Structure", "MIC"],
 "data": [
  ["O=C(Nc1cnccn1)c1ccccc1O", "> 500 µM"],
  ["O=C(Nc1cnc(Cl)cn1)c1cccc(O)c1", "> 500 µM"],
  ["O=C(Nc1cncc(Cl)n1)c1cccc(Cl)c1", "> 125 µM"],
  ["Cc1ccc(C(=O)Nc2cnccn2)cc1", "> 500 µM"],
  ["COc1ccccc1C(=O)Nc1cnc(Cl)cn1", "> 125 µM"],
  ["O=C(Nc1cnc(Cl)cn1)c1ccc(Cl)cc1", "> 125 µM"],
  ["CCc1ccc(C(=O)Nc2cnccn2)cc1", "500 µM"],
  ["COc1ccc(C(=O)Nc2cnc(Cl)cn2)cc1", "> 125 µM"],
  ["COc1cccc(C(=O)Nc2cnc(Cl)cn2)c1", "> 500 µM"],
  ["COc1ccccc1C(=O)Nc1cnccn1", "> 500 µM"],
  ["CC(=O)Oc1ccc(C(=O)Nc2cnccn2)cc1", "> 500 µM"],
  ["O=C(Nc1cnc(Cl)cn1)c1ccc(Br)cc1", "> 125 µM"],
  ["O=C(Nc1cnc(Cl)cn1)c1ccccc1Cl", "> 500 µM"],
  ["O=C(Nc1cnc(Cl)cn1)c1cccc(Cl)c1", "> 125 µM"],
  ["Cc1ccc(C(=O)Nc2cnc(Cl)cn2)cc1", "> 125 µM"],
  ["CCc1ccc(C(=O)Nc2cnc(Cl)cn2)cc1", "> 125 µM"],
  ["CC(=O)Oc1ccccc1C(=O)Nc1cnc(Cl)cn1", "> 250 µM"],
  ["COc1ccc(C(=O)Nc2cnccn2)cc1", "> 500 µM"],
  ["O=C(Nc1cnccn1)c1ccccc1", "> 500 µM"],
  ["O=C(Nc1cnc(Cl)cn1)c1ccccc1O", "> 500 µM"],
  ["O=C(Nc1cncc(Cl)n1)c1ccccc1Cl", "> 500 µM"],
  ["COc1cccc(C(=O)Nc2cnccn2)c1", "> 500 µM"],
  ["O=C(Nc1cnccn1)c1ccccc1Cl", "> 500 µM"]
]}

* * *

MIC by entry:
Tested on: Candida albicans ATCC 44859
Test: Antifungal microdilution broth, CA
Format: cell-based
Conditions: Candida albicans, ATCC44859, 24 h, read-out: MIC CA
Metric name: MIC

{"columns": ["Compound", "Value measured"],
 "data": [
  ["COc1ccccc1C(=O)Nc1cnc(Cl)cn1 [Compound 2e]", "> 125 µM"],
  ["O=C(Nc1cnccn1)c1cccc(Cl)c1 [Compound 1k]", "> 125 µM"],
  ["COc1cccc(C(=O)Nc2cnccn2)c1 [Compound 1f]", "> 500 µM"],
  ["O=C(Nc1cnc(Cl)cn1)c1cccc(Cl)c1 [Compound 2k]", "> 125 µM"],
  ["O=C(Nc1cnc(Cl)cn1)c1ccccc1 [Compound 2a]", "> 500 µM"],
  ["CC(=O)Oc1ccc(C(=O)Nc2cnc(Cl)cn2)cc1 [Compound 2d-Ac]", "> 125 µM"],
  ["O=C(Nc1cncc(Cl)n1)c1ccccc1Cl [Compound 3j]", "> 500 µM"],
  ["O=C(Nc1cnccn1)c1cccc(O)c1 [Compound 1c]", "> 500 µM"],
  ["O=C(Nc1cnc(Cl)cn1)c1cccc(O)c1 [Compound 2c]", "500 µM"],
  ["Cc1ccc(C(=O)Nc2cnccn2)cc1 [Compound 1h]", "500 µM"],
  ["Cc1ccc(C(=O)Nc2cnc(Cl)cn2)cc1 [Compound 2h]", "> 125 µM"],
  ["CC(=O)Oc1ccccc1C(=O)Nc1cnc(Cl)cn1 [Compound 2b-Ac]", "125 µM"],
  ["O=C(Nc1cnccn1)c1cccc(C(F)(F)F)c1 [Compound 1n]", "> 125 µM"],
  ["O=C(Nc1cncc(Cl)n1)c1cccc(Cl)c1 [Compound 3k]", "> 125 µM"],
  ["CCc1ccc(C(=O)Nc2cnc(Cl)cn2)cc1 [Compound 2i]", "> 125 µM"],
  ["O=C(Nc1cnccn1)c1ccccc1 [Compound 1a]", "500 µM"],
  ["O=C(Nc1cnc(Cl)cn1)c1ccccc1O [Compound 2b]", "62.5 µM"],
  ["COc1ccc(C(=O)Nc2cnccn2)cc1 [Compound 1g]", "> 500 µM"],
  ["O=C(Nc1cnc(Cl)cn1)c1ccccc1Cl [Compound 2j]", "> 500 µM"],
  ["O=C(Nc1cnccn1)c1ccccc1Cl [Compound 1j]", "> 500 µM"],
  ["CC(=O)Oc1cccc(C(=O)Nc2cnccn2)c1 [Compound 1c-Ac]", "> 500 µM"],
  ["O=C(Nc1cnc(Cl)cn1)c1ccc(Br)cc1 [Compound 2m]", "> 125 µM"],
  ["COc1ccc(C(=O)Nc2cnc(Cl)cn2)cc1 [Compound 2g]", "> 125 µM"],
  ["O=C(Nc1cnc(Cl)cn1)c1ccc(Cl)cc1 [Compound 2l]", "> 125 µM"],
  ["O=C(Nc1cnccn1)c1ccccc1O [Compound 1b]", "> 500 µM"],
  ["O=C(Nc1cnc(Cl)cn1)c1ccc(O)cc1 [Compound 2d]", "500 µM"],
  ["CC(=O)Oc1cccc(C(=O)Nc2cnc(Cl)cn2)c1 [Compound 2c-Ac]", "> 125 µM"],
  ["COc1ccccc1C(=O)Nc1cncc(Cl)n1 [Compound 3e]", "> 500 µM"],
  ["O=C(c1ccc(Cl)cc1)N(C(=O)c1ccc(Cl)cc1)c1cnccn1 [Compound 1l-SP]", "> 125 µM"],
  ["COc1cccc(C(=O)Nc2cnc(Cl)cn2)c1 [Compound 2f]", "125 µM"],
  ["CC(=O)Oc1ccc(C(=O)Nc2cnccn2)cc1 [Compound 1d-Ac]", "> 500 µM"],
  ["O=C(Nc1cnccn1)c1ccc(Cl)cc1 [Compound 1l]", "> 125 µM"],
  ["COc1ccccc1C(=O)Nc1cnccn1 [Compound 1e]", "> 500 µM"],
  ["CCc1ccc(C(=O)Nc2cnccn2)cc1 [Compound 1i]", "> 500 µM"]
]}

* * *

Tested on: Staphylococcus aureus CCM 4516/08
Assay: Antibacterial microdilution broth, SA
Format: cell-based
Settings: Staphylococcus aureus, CCM4516, 48 h, read-out: MIC SA, 48 h
MIC by entry:
Metric name: MIC

{"columns": ["Structure", "Value measured"],
 "data": [
  ["O=C(Nc1cnccn1)c1ccccc1Cl", "250 µM"],
  ["CC(=O)Oc1cccc(C(=O)Nc2cnc(Cl)cn2)c1", "> 125 µM"],
  ["CC(=O)Oc1ccc(C(=O)Nc2cnccn2)cc1", "> 500 µM"],
  ["O=C(Nc1cnccn1)c1ccccc1O", "> 500 µM"],
  ["COc1ccccc1C(=O)Nc1cnccn1", "> 500 µM"],
  ["Cc1ccc(C(=O)Nc2cnc(Cl)cn2)cc1", "> 125 µM"]
]}

* * *

Test system: Staphylococcus aureus H 5996/08 methicillin resistant
Assay: microbe, parasite or virus in culture
Format: cell-based
Conditions: Staphylococcus aureus, MRSA, 48 h, read-out: MIC MRSA

{"columns": ["Structure", "MIC"],
 "data": [
  ["O=C(Nc1cnc(Cl)cn1)c1ccccc1O", "62.5 µM"],
  ["COc1ccccc1C(=O)Nc1cnccn1", "> 500 µM"],
  ["O=C(Nc1cnccn1)c1ccccc1Cl", "> 500 µM"],
  ["Cc1ccc(C(=O)Nc2cnc(Cl)cn2)cc1", "> 125 µM"],
  ["O=C(Nc1cnccn1)c1ccccc1O", "> 500 µM"],
  ["O=C(Nc1cnccn1)c1ccccc1", "> 500 µM"]
]}
